- ASSAYED_SYSTEM: human EDG-1 (Homo sapiens, UniProt P21453)
- Construct: c-myc (N)
- Sequence (P21453 whole entry): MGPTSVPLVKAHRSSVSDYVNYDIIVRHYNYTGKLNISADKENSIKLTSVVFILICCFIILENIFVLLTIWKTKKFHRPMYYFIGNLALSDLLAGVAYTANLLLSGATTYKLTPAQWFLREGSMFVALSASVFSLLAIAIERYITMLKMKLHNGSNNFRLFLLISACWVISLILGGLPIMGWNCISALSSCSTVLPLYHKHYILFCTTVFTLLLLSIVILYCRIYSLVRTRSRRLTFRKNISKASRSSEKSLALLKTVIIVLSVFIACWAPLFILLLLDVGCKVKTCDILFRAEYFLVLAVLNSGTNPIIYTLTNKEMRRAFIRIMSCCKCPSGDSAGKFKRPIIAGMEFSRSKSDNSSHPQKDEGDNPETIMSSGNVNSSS
- MEASUREMENT_PROTOCOL: EDG-1 (S1P1) GTP [γ-35S] binding assay (SPA)
- CONDITION_SET: membranes of CHO cells expressing human EDG-1
ASSAY_READOUT: pEC50
Give bare numbers, as −log10 of the molar value.

IN: Report pEC50, nothing else, for this compound: O=C(O)CCNCc1ccc2c(c1)CCC/C2=N\OCc1ccc(C2CCCCC2)c(C(F)(F)F)c1 [Example 1]
OUT: 9.11
